Molecular target: T1, mouse E-selectin extracellular domain with 10 His purification tail (mouse, UniProt Q00690 22-557)
T1 construct: also called soluable mouse E-selectin extracellular domain; muE-Selctin
T1 sequence: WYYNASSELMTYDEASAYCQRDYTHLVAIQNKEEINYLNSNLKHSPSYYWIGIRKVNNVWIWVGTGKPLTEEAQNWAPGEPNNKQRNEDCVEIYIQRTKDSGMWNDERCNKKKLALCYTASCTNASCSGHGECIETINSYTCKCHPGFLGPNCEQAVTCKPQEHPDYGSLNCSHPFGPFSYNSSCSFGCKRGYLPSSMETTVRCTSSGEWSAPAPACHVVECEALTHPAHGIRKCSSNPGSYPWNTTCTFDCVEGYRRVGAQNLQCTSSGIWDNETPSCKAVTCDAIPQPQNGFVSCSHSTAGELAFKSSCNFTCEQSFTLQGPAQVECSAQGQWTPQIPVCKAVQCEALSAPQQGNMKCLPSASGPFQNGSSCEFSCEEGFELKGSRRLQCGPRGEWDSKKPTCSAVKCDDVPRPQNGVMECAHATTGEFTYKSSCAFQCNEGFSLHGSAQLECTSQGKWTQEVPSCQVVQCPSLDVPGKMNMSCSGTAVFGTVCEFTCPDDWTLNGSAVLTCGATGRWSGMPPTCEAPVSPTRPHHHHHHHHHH
Assay: antigen binding ELISA, HRP detection
pEC50: −log10 of the molar value.
quantity-measured: pEC50

A selection of reference data follows.
binder	pEC50
anti-E-selectin antibody 0027 chimera (antibody, human IgG1, kappa, V domains shown, rat VH/VL on effector-null human IgG1 (L234A, L235A, G237A, EU) and human kappa; directed to mouse E-selectin) VH: EVHLHQSGPELGRPGSSVKISCKASGYTFTDYVMNWVRQSPGQGLEWIGWINPEDYSFDSGEKFLERATLTAATSSNTVYIQLSGLTSDDTATYFCVRGGLPGDWFAYWGQGTLVTVSS VL: DIQMTQSPSFLSASVGDRITINCKTSQNINRYLNWFQQKLGEPPKLLIYNANSLQADIPSRFSGSGSGTDFTLTITSLQPEDVATYFCLQHHFWPYTFGAGTKLELRR	10.70
anti-E-selectin antibody 0159 chimera (antibody, human IgG1, kappa, V domains shown, rat VH/VL on effector-null human IgG1 and human kappa) VH: EVQLQQSGAELGKPGTSVKLSCKVSGYNIRSTYMHWVSQRPGKGLEWIGRIDPANGNTIYAEKFKRKATLTADTSSNTAYMQLSQLKSDDRAIYFCAMEVRVSFEYWGQGVMVTVSS VL: DIQMTQSPSFLSASVGDRVTINCKASQNINKYLDWYQQKLGEGPKLLIYYTNNLHTGIPSRFSGSGSGTDFTLTISSLQPEDVATYFCLQHDSGYTFGAGTKLELKR	< 6.88

In the following, a different binder is considered.
Summary for this binder, anti-E-selectin antibody 0180 chimera (antibody, human IgG1, kappa, V domains shown, rat VH/VL on effector-null human IgG1 and human kappa) VH: EVQLQQSGAELGKPGTSVKLSCKVSGYKIRSSYMHWVNQRPGKGLEWIGRIDPANGNTIYGDKFKSKATLTSDTSSNTAYIQLSQLKSDDTAIYFCAIDIGTTFDYWGQGVMVTVSS VL: DIQMTQSPSFLSASVGDRVTINCKASQHINRYLNWYQQKLGEAPKLLIYDANNLQTGIPSRFSGSGSGTDFTLTISSLQPEDVATYFCLQHNSWPNTFGAGTKLELKR : pEC50 is < 6.88
